Values were extracted from ChEMBL document CHEMBL1141143.

TESTED ON: GABA-A receptor; anion channel (Rattus norvegicus) (UniProt O09028+P15431+P18506+P18508+P19969+P20236+P23574+P23576+P28471+P28473+P30191+P62813+P63079+P63138+Q91ZM7+Q9ES14)
ASSAY REMARKS: Displacement of [3H]EBOB from GABA-A receptors of rat cerebellum
Type: tissue-based
Rule: Ks below 800 nM gives Criterion met. Equal to or above 800 nM gives Criterion not met.

{"COMPOUND": "C#CC(=O)[C@H]1CC[C@H]2[C@@H]3CC[C@H]4C[C@H](O)CC[C@]4(C)[C@H]3CC[C@]12C", "GROUP": "Criterion not met"}
{"COMPOUND": "C=C=C[C@@H](O)[C@H]1CC[C@H]2[C@@H]3CC[C@H]4C[C@H](O)CC[C@]4(C)[C@H]3CC[C@]12C", "GROUP": "Criterion met"}
{"COMPOUND": "C#C[C@H](OC)[C@H]1CC[C@H]2[C@@H]3CC[C@H]4C[C@H](O)CC[C@]4(C)[C@H]3CC[C@]12C", "GROUP": "Criterion not met"}
{"COMPOUND": "CC(=O)[C@H]1CC[C@H]2[C@@H]3CC[C@H]4C[C@H](O)CC[C@]4(C)[C@H]3CC[C@]12C", "GROUP": "Criterion met"}
{"COMPOUND": "Cc1ccc(C#C[C@H]2CC[C@H]3[C@@H]4CC[C@H]5C[C@H](O)CC[C@]5(C)[C@H]4CC[C@]23C)cc1", "GROUP": "Criterion not met"}
{"COMPOUND": "COc1ccc(C#C[C@@H](O)[C@H]2CC[C@H]3[C@@H]4CC[C@H]5C[C@H](O)CC[C@]5(C)[C@H]4CC[C@]23C)cc1", "GROUP": "Criterion not met"}
{"COMPOUND": "C#C[C@@H](O)[C@H]1CC[C@H]2[C@@H]3CC[C@H]4C[C@H](O)CC[C@]4(C)[C@H]3CC[C@]12C", "GROUP": "Criterion met"}
{"COMPOUND": "CC(O)C#C[C@H]1CC[C@H]2[C@@H]3CC[C@H]4C[C@H](O)CC[C@]4(C)[C@H]3CC[C@]12C (stereo partly drawn)", "GROUP": "Criterion not met"}
{"COMPOUND": "C#C[C@H](O)[C@H]1CC[C@H]2[C@@H]3CC[C@H]4C[C@H](O)CC[C@]4(C)[C@H]3CC[C@]12C", "GROUP": "Criterion met"}
{"COMPOUND": "C[C@]12CC[C@@H](O)C[C@@H]1CC[C@@H]1[C@@H]2CC[C@]2(C)[C@@H](C#CBr)CC[C@@H]12", "GROUP": "Criterion met"}
{"COMPOUND": "COc1ccc(C#C[C@H](O)[C@H]2CC[C@H]3[C@@H]4CC[C@H]5C[C@H](O)CC[C@]5(C)[C@H]4CC[C@]23C)cc1", "GROUP": "Criterion not met"}
